Test system: HOP-62
protocol-text: Growth inhibition of human HOP62 cells at 10 uM after 48 hrs by sulforhodamine B assay
Assay type: functional, cell-based
Calls of active or inactive are those of the source. The calls are words filed in the database; no cut-off is given here.
// one of active, inactive, no free text

Task: Which result was noted for this molecule in the test: O=C1/C(=C\c2cccn2Cc2ccc(Cl)cc2)c2ccccc2N1c1c(Cl)cccc1Cl
Output: inactive

Task: Which result was noted for this molecule in the test: O=C1/C(=C\c2cccn2C(=O)c2ccccc2)c2ccccc2N1c1c(Cl)cccc1Cl
Output: inactive

Task: Which result was noted for this molecule in the test: O=C1/C(=C\c2ccc[nH]2)c2ccccc2N1c1c(Cl)cccc1Cl
Output: inactive

Task: Which result was noted for this molecule in the test: O=C1/C(=C\c2cccn2C(=O)c2ccc(Cl)s2)c2ccccc2N1c1c(Cl)cccc1Cl
Output: inactive

Task: Which result was noted for this molecule in the test: O=C1/C(=C\c2cccn2Cc2ccccc2)c2ccccc2N1c1c(Cl)cccc1Cl
Output: active

Task: Which result was noted for this molecule in the test: O=C1/C(=C\c2cccn2C(=O)c2ccc(Cl)cc2)c2ccccc2N1c1c(Cl)cccc1Cl
Output: inactive

Task: Which result was noted for this molecule in the test: O=C1/C(=C\c2cccn2Cc2ccc(F)cc2)c2ccccc2N1c1c(Cl)cccc1Cl
Output: inactive

Task: Which result was noted for this molecule in the test: Cc1ccc(S(=O)(=O)n2cccc2/C=C2\C(=O)N(c3c(Cl)cccc3Cl)c3ccccc32)cc1
Output: inactive
